Molecular target: Nitric oxide synthase 3 (Homo sapiens, UniProt P29474)
Sequence (P29474 whole entry): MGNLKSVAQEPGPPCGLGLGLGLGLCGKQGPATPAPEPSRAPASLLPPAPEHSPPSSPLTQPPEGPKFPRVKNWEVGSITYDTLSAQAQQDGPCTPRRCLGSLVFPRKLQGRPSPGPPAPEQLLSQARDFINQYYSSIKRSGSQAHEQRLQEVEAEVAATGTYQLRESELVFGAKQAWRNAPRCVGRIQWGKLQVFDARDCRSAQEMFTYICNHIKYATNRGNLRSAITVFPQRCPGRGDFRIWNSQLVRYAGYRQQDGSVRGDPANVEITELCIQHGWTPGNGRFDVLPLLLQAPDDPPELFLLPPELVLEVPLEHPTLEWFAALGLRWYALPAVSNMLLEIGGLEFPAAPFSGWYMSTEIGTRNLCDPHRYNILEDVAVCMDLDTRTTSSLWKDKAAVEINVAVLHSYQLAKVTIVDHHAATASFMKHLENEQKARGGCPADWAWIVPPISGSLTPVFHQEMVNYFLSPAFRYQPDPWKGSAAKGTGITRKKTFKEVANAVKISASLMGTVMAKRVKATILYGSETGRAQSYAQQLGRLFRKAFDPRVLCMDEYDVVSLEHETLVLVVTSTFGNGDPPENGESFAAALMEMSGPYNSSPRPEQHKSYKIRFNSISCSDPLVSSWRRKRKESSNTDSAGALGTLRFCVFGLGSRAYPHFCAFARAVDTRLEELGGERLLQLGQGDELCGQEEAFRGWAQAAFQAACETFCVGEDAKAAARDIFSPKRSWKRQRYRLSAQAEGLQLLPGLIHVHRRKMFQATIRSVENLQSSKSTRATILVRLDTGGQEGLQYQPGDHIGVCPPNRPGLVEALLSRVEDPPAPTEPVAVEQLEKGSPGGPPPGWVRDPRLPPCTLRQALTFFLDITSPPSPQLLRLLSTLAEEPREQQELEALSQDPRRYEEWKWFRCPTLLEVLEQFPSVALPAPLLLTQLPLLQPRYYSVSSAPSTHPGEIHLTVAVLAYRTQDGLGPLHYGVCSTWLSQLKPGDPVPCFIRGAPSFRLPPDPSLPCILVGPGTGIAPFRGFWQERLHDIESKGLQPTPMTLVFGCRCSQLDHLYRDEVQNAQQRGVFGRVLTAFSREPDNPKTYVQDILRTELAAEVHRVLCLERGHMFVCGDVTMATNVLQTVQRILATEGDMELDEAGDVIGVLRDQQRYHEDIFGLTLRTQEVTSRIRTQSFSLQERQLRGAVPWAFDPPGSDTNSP
pKi: −log10 of the molar value.
From various publications: pKi for Nitric oxide synthase 3 (Homo sapiens, UniProt P29474).
Hi, to clarify the labels: rule met covers pKi from 5 upward, rule not met covers anything below 5.

Below, 6 compounds whose answers are already recorded.
[[record]]
compound = "N=C(N)Nc1cccc(CC(N)C(=O)O)c1 (stereo not drawn)"
assigned_category = "rule not met"

[[record]]
compound = "Cc1cc(N)nc2cc(-c3cccc(CN)c3)ccc12.Cl.Cl"
assigned_category = "rule not met"

[[record]]
compound = "CCSC(=N)Nc1ccccn1"
assigned_category = "rule not met"

[[record]]
compound = "NC(N)=Nc1ccccc1CC(N)C(=O)O (stereo not drawn)"
assigned_category = "rule met"

[[record]]
compound = "C/N=C(/N)Nc1ccccc1CC(N)C(=O)O (stereo not drawn)"
assigned_category = "rule met"

[[record]]
compound = "CNCCCc1cc(F)cc(CCc2cc(C)cc(N)n2)c1"
assigned_category = "rule not met"


Query: In plain terms: is recorded pKi at least 5 for CNCc1ccc(-c2cc(F)cc(CCc3cc(C)cc(N)n3)c2)cc1 ?
Result: rule not met

Query: Reported pKi reaches at least 5 for CNCCCc1cc(CCc2cc(C)cc(N)n2)cc(C(F)(F)F)c1 ?
Result: rule not met

Query: Threshold query (pKi >= 5) on CCSC(=N)Nc1ccccc1C(F)(F)F
Result: rule not met

Query: Would you say CCSC(=N)Nc1ccncc1 shows pKi at minimum 5?
Result: rule not met

Query: Please check the record CCSC(=N)Nc1ccccc1 and state if its pKi is at or above 5.
Result: rule met

Query: API: above_or_equal(metric=pKi, cutoff=5) for item CC(=N)Nc1cccc(CC(N)C(=O)O)c1 (stereo not drawn)
Result: rule not met

Query: # bool: pKi of Cc1cc(N)nc(CCc2cccc(CCCN(C)C)c2)c1 >= 5
Result: rule not met
